- Tested on: Escherichia coli TOP10;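 further: peptides expressed intracellularly from a pBAD plasmid library in pooled LB shake-flask culture, induced with 0.3% L-arabinose, DNA abundance read by NGS, three biological replicates, DESeq2 with apeglm shrinkage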
- Protocol Details: shrunken log2 fold change of peptide-encoding DNA abundance (4.5 h post-induction vs induction); higher = less antimicrobial activity (less host growth inhibition)
- Condition Context: time post-induction: 4.5 h; library: site-saturation at positions 5, 18, 19, 20
Experimental Endpoint: shrunken log2 fold change

>>> df
             entry_sequence            study_target  reported_measurement
 0  RRIRMRPPRLPRPRPRPEMIPRP  Escherichia coli TOP10                   2.2
 1  RRIRTRPPRLPRPRPRPIQVPRP  Escherichia coli TOP10               -0.0152
 2  RRIRARPPRLPRPRPRPINFPRP  Escherichia coli TOP10                0.0601
 3  RRIRTRPPRLPRPRPRPCCNPRP  Escherichia coli TOP10                -0.282
 4  RRIRHRPPRLPRPRPRPSLSPRP  Escherichia coli TOP10                -0.619
 5  RRIRSRPPRLPRPRPRPHCVPRP  Escherichia coli TOP10               -0.0724
 6  RRIRYRPPRLPRPRPRPNDAPRP  Escherichia coli TOP10                 0.011
 7  RRIRFRPPRLPRPRPRPALYPRP  Escherichia coli TOP10                -0.155
 8  RRIRRRPPRLPRPRPRPTEEPRP  Escherichia coli TOP10                  1.07
 9  RRIRLRPPRLPRPRPRPWVPPRP  Escherichia coli TOP10                -0.569
10  RRIRQRPPRLPRPRPRPPIAPRP  Escherichia coli TOP10                 0.104
11  RRIRMRPPRLPRPRPRPMGMPRP  Escherichia coli TOP10                -0.103
12  RRIRFRPPRLPRPRPRPYSLPRP  Escherichia coli TOP10              -0.00881
13  RRIRPRPPRLPRPRPRPPMCPRP  Escherichia coli TOP10                0.0827
14  RRIRARPPRLPRPRPRPCVDPRP  Escherichia coli TOP10                 0.581
15  RRIRARPPRLPRPRPRPGWQPRP  Escherichia coli TOP10                0.0839
16  RRIRRRPPRLPRPRPRPTLFPRP  Escherichia coli TOP10                 0.826
17  RRIRFRPPRLPRPRPRPILSPRP  Escherichia coli TOP10                -0.101
18  RRIRERPPRLPRPRPRPMYIPRP  Escherichia coli TOP10                -0.289
19  RRIRIRPPRLPRPRPRPIFTPRP  Escherichia coli TOP10                0.0285
20  RRIRNRPPRLPRPRPRPAFAPRP  Escherichia coli TOP10                 0.158
21  RRIRGRPPRLPRPRPRPEMCPRP  Escherichia coli TOP10                   1.4
22  RRIRIRPPRLPRPRPRPPRSPRP  Escherichia coli TOP10                 0.272
23  RRIRFRPPRLPRPRPRPFWDPRP  Escherichia coli TOP10                -0.374
24  RRIRPRPPRLPRPRPRPGCDPRP  Escherichia coli TOP10                 0.309
25  RRIRQRPPRLPRPRPRPMIYPRP  Escherichia coli TOP10               -0.0652
26  RRIRRRPPRLPRPRPRPHDLPRP  Escherichia coli TOP10                  0.22
27  RRIRFRPPRLPRPRPRPWQDPRP  Escherichia coli TOP10              -0.00804
28  RRIRHRPPRLPRPRPRPHKWPRP  Escherichia coli TOP10               -0.0897
29  RRIRLRPPRLPRPRPRPPMYPRP  Escherichia coli TOP10                -0.093
30  RRIRDRPPRLPRPRPRPHADPRP  Escherichia coli TOP10               -0.0841
31  RRIRCRPPRLPRPRPRPGPWPRP  Escherichia coli TOP10                 0.422
32  RRIRMRPPRLPRPRPRPRNKPRP  Escherichia coli TOP10                 0.667
33  RRIRCRPPRLPRPRPRPTPHPRP  Escherichia coli TOP10                 0.821
34  RRIRDRPPRLPRPRPRPQILPRP  Escherichia coli TOP10                 0.132
35  RRIRNRPPRLPRPRPRPGVEPRP  Escherichia coli TOP10                 0.604
36  RRIRHRPPRLPRPRPRPINNPRP  Escherichia coli TOP10                  -0.7
37  RRIRERPPRLPRPRPRPKIGPRP  Escherichia coli TOP10               -0.0947
38  RRIRGRPPRLPRPRPRPDNWPRP  Escherichia coli TOP10                 0.347
39  RRIRHRPPRLPRPRPRPLYHPRP  Escherichia coli TOP10                -0.198
40  RRIRYRPPRLPRPRPRPYNVPRP  Escherichia coli TOP10               -0.0198
41  RRIRERPPRLPRPRPRPNWDPRP  Escherichia coli TOP10                -0.125
42  RRIRFRPPRLPRPRPRPIALPRP  Escherichia coli TOP10                -0.222
43  RRIRCRPPRLPRPRPRPNHVPRP  Escherichia coli TOP10                -0.248
44  RRIRFRPPRLPRPRPRPRHGPRP  Escherichia coli TOP10                 0.155
